Answer each item with its documented log10(IC50).
Target: Sortase A (Staphylococcus aureus)
Sequence (Q9S446 whole entry): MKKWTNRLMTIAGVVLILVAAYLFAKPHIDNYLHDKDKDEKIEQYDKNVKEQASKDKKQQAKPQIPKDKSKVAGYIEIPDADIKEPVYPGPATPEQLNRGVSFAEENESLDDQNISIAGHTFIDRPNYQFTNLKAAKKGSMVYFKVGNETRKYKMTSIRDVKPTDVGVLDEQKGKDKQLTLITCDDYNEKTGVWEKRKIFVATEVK
Record value = log10 of IC50 given in µM.

Req: Would you kindly share the measured log10(IC50) for `COc1ccc(/C(C#N)=C/c2cccc(OC)c2)cc1` ?
Resp: 1.24

Req: Would you kindly share the measured log10(IC50) for `COC(=O)/C(=C\c1ccc(OC)cc1)c1ccc(OC)cc1` ?
Resp: 2.96

Req: Would you kindly share the measured log10(IC50) for `COc1ccc(/C(C#N)=C/c2ccccc2OC)cc1` ?
Resp: 1.56

Req: Would you kindly share the measured log10(IC50) for `COc1ccc(/C(C#N)=C/c2cc(OC)cc(OC)c2)cc1` ?
Resp: 1.41

Req: Would you kindly share the measured log10(IC50) for `COC(=O)/C(=C/c1ccc(OC)cc1)c1ccc(OC)cc1` ?
Resp: 2.36

Req: Would you kindly share the measured log10(IC50) for `COc1ccc(/C=C(/C#N)c2ccc(OC)cc2)cc1` ?
Resp: 2.27

Req: Would you kindly share the measured log10(IC50) for `COc1ccc(/C=C(\C#N)c2ccc(OC)cc2)cc1` ?
Resp: 1.45

Req: Would you kindly share the measured log10(IC50) for `COc1ccc(/C=C(/C(N)=O)c2ccc(OC)cc2)cc1` ?
Resp: 2.68

Req: Would you kindly share the measured log10(IC50) for `COc1ccc(/C(C#N)=C/c2cc(OC)ccc2OC)cc1` ?
Resp: 0.97

Req: Would you kindly share the measured log10(IC50) for `COc1ccc(/C(C#N)=C/c2ccc(OC)c(OC)c2)cc1` ?
Resp: 1.36
